- tgt: Human AMPK α2β2γ1 (Homo sapiens, UniProt O43741+P54646)
- Construct: The full length cDNAs of human AMPK β2 (NM_005399.3) and human AMPK α2 (NM_006252.3); The full length cDNAs of human AMPK β2 (NM_005399.3); the full length cDNA of human AMPK γ1 (NM_002733.3) had been inserted into pET28b(+); 6xHis (N); made in house; host or cells: Escherichia coli BL21 CodonPlus (DE3)-RTL (AMPK); BL21 Star (DE3) (CaMKKβ)
- Sequence (P54646 whole entry): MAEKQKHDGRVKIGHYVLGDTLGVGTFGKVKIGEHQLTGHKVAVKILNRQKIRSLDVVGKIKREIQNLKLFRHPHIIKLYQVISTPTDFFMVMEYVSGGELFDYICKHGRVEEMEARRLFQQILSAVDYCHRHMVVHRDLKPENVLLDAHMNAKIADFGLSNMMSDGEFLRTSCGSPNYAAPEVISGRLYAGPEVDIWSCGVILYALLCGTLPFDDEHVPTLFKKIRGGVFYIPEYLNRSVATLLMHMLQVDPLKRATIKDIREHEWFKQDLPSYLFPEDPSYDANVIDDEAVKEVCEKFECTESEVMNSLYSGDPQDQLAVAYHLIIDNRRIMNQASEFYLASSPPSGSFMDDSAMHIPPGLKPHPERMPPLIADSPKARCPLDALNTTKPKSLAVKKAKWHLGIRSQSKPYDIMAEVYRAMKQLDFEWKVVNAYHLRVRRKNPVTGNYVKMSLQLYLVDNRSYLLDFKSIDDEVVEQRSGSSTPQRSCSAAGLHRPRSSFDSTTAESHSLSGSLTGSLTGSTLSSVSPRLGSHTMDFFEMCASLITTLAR
- Sequence (O43741 whole entry): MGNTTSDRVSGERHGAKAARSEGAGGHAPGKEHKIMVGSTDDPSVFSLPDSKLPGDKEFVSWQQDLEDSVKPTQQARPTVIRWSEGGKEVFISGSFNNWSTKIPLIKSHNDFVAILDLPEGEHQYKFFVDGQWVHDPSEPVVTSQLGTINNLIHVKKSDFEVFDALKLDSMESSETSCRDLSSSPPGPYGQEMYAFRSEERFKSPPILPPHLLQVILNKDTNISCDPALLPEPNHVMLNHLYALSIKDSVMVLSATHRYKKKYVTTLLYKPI
- Sequence (P54619 whole entry partner): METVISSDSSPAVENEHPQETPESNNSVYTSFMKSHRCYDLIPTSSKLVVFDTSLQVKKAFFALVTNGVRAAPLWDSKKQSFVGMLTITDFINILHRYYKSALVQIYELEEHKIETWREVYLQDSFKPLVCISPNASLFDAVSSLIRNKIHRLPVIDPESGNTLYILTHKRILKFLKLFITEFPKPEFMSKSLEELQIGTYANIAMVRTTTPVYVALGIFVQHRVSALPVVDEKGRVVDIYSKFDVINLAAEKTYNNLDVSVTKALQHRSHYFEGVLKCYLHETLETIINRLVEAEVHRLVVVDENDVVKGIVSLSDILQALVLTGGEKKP
- measurement.protocol: Test Example 2: evaluation of an activator for AMP-activated protein kinase (AMPK), human AMPK α2β2γ1 phosphorylated with CaMKK2, FL-Peptide 7 mobility shift
- Type: biochemical
- condition.label: human AMPK α2β2γ1, 0.2 mM ATP final, 25° C., 2 hours
value.type: EC150 (compound concentration showing 150% relative to the control (100%)) (nM)
The reply should contain only the number, in nM.

Data request: Note EC150 (compound concentration showing 150% relative to the control (100%)) for the compound shown: "O[C@@H]1CO[C@H]2[C@@H]1OC[C@H]2Oc1cc2nc(-c3c(F)cc(C4=CCOCC4)cc3F)c(F)cc2[nH]1"
Data returned: 2

Data request: Note EC150 (compound concentration showing 150% relative to the control (100%)) for the compound shown: "N#Cc1c(O[C@@H]2CO[C@H]3[C@@H]2OC[C@H]3O)[nH]c2cc(Cl)c(-c3ccc(-c4ccccc4)cc3)nc12"
Data returned: 59

Data request: Note EC150 (compound concentration showing 150% relative to the control (100%)) for the compound shown: "O[C@@H]1CO[C@H]2[C@@H]1OC[C@H]2Oc1cc2nc(-c3ccc(OCCCN4CCOCC4)cc3)c(F)cc2[nH]1"
Data returned: 74

Data request: Note EC150 (compound concentration showing 150% relative to the control (100%)) for the compound shown: "CS(C)(=O)=Nc1ccc(-c2ccc(-c3nc4cc(O[C@@H]5CO[C@H]6[C@@H]5OC[C@H]6O)[nH]c4cc3F)cc2)cc1"
Data returned: 0.91

Data request: Note EC150 (compound concentration showing 150% relative to the control (100%)) for the compound shown: "N#Cc1c(O[C@@H]2CO[C@H]3[C@@H]2OC[C@H]3O)[nH]c2cc(Cl)c(OCc3c(F)cccc3F)nc12"
Data returned: 330

Data request: Note EC150 (compound concentration showing 150% relative to the control (100%)) for the compound shown: "N#Cc1c(O[C@@H]2CO[C@H]3[C@@H]2OC[C@H]3O)[nH]c2cc(Cl)c(-c3ccc(-c4ccc(-n5cncn5)cc4)cc3)nc12"
Data returned: 3.8
